Quick list: IC50 per entry.
System: P388
Experiment: In vitro cytotoxicity against P388 tumor cell lines.
Type: functional, cell-based
Conditions: Mus musculus
Measured endpoint: IC50 (ng/mL)

Compound: CC(C)[C@H]1C(=O)OC[C@@H](NC(=O)c2cnc3ccccc3n2)C(=O)N[C@@H](C)C(=O)N(C)[C@H]2CSC([S+](C)[O-])[C@@H](C(=O)N1C)N(C)C(=O)[C@H](C)NC(=O)[C@H](NC(=O)c1cnc3ccccc3n1)COC(=O)[C@H](C(C)C)N(C)C2=O (stereo partly specified)
Unit info: ng/mL
Observed: 8.8
//
Compound: CC(C)[C@H]1C(=O)OC[C@@H](NC(=O)c2cnc3ccccc3n2)C(=O)N[C@@H](C)C(=O)N(C)[C@H]2C[S+]([O-])C([S+](C)[O-])[C@@H](C(=O)N1C)N(C)C(=O)[C@H](C)NC(=O)[C@H](NC(=O)c1cnc3ccccc3n1)COC(=O)[C@H](C(C)C)N(C)C2=O (stereo partly specified)
Unit info: ng/mL
Observed: 98
//
Compound: CSC1[C@H]2C(=O)N(C)[C@@H](C(C)C)C(=O)OC[C@@H](NC(=O)c3cnc4ccccc4n3)C(=O)N[C@@H](C)C(=O)N(C)[C@@H](C[S+]1C)C(=O)N(C)[C@@H](C(C)C)C(=O)OC[C@@H](NC(=O)c1cnc3ccccc3n1)C(=O)N[C@@H](C)C(=O)N2C.[Cl-] (stereo partly specified)
Unit info: ng/mL
Observed: 0.0081
//
Compound: COc1cccc2c1C(=O)c1c(O)c3c(c(O)c1C2=O)C[C@@](O)(C(=O)CO)C[C@@H]3O[C@H]1C[C@H](N)[C@H](O)[C@H](C)O1
Unit info: ng/mL
Observed: 9.6
//
Compound: CS[C@H]1SC[C@H]2C(=O)N(C)[C@@H](C(C)C)C(=O)OC[C@@H](NC(=O)c3cnc4ccccc4n3)C(=O)N[C@@H](C)C(=O)N(C)[C@@H]1C(=O)N(C)[C@@H](C(C)C)C(=O)OC[C@@H](NC(=O)c1cnc3ccccc3n1)C(=O)N[C@@H](C)C(=O)N2C
Unit info: ng/mL
Observed: 0.043
//
Compound: CC(C)[C@H]1C(=O)OC[C@@H](NC(=O)c2cnc3ccccc3n2)C(=O)N[C@@H](C)C(=O)N(C)[C@H]2CSC(S(C)(=O)=O)[C@@H](C(=O)N1C)N(C)C(=O)[C@H](C)NC(=O)[C@H](NC(=O)c1cnc3ccccc3n1)COC(=O)[C@H](C(C)C)N(C)C2=O (stereo partly specified)
Unit info: ng/mL
Observed: 60

----------
Tested on: B16
Assay: In vivo antitumor activity was determined against B16 tumor cell lines in mice at dose of 1 mg/kg administered intraperitoneally.
Assay type: functional, Mus musculus
Conditions: route intraperitoneal
Quick list: MST per entry.

Compound: CS[C@H]1SC[C@H]2C(=O)N(C)[C@@H](C(C)C)C(=O)OC[C@@H](NC(=O)c3cnc4ccccc4n3)C(=O)N[C@@H](C)C(=O)N(C)[C@@H]1C(=O)N(C)[C@@H](C(C)C)C(=O)OC[C@@H](NC(=O)c1cnc3ccccc3n1)C(=O)N[C@@H](C)C(=O)N2C
MST (days): 21

Compound: CC(C)[C@H]1C(=O)OC[C@@H](NC(=O)c2cnc3ccccc3n2)C(=O)N[C@@H](C)C(=O)N(C)[C@H]2CSC(S(C)(=O)=O)[C@@H](C(=O)N1C)N(C)C(=O)[C@H](C)NC(=O)[C@H](NC(=O)c1cnc3ccccc3n1)COC(=O)[C@H](C(C)C)N(C)C2=O (some centres undefined)
MST (days): 17

Compound: CC(C)[C@H]1C(=O)OC[C@@H](NC(=O)c2cnc3ccccc3n2)C(=O)N[C@@H](C)C(=O)N(C)[C@H]2C[S+]([O-])C([S+](C)[O-])[C@@H](C(=O)N1C)N(C)C(=O)[C@H](C)NC(=O)[C@H](NC(=O)c1cnc3ccccc3n1)COC(=O)[C@H](C(C)C)N(C)C2=O (some centres undefined)
MST (days): 17

Compound: CC(C)[C@H]1C(=O)OC[C@@H](NC(=O)c2cnc3ccccc3n2)C(=O)N[C@@H](C)C(=O)N(C)[C@H]2CSC([S+](C)[O-])[C@@H](C(=O)N1C)N(C)C(=O)[C@H](C)NC(=O)[C@H](NC(=O)c1cnc3ccccc3n1)COC(=O)[C@H](C(C)C)N(C)C2=O (some centres undefined)
MST (days): 20
